Where do the numbers come from? From PubChem BioAssay (NCI).

Test system: NCI-H23 lung
Experiment: NCI tumour cell line growth inhibition, 48 h
Kindly supply the reported TGI values for the records listed here.
Answer format: numeric, µM implied, no suffix.

Request: Given C/C(=N\NC(=S)N1CCN(c2ccccn2)CC1)c1ccccn1 , state its recorded TGI.
Result: 11.5

Request: Suppose we examine the compound NC(=O)c1cccc2c(N[C@H](CN3CCC3)c3ccc(Cl)c(C(F)(F)F)c3)ncnc12 ; what TGI value has been reported?
Result: 17

Request: Fill in the blank: the reported TGI of COC(=O)c1ccc2nc(-c3cc4ccccc4n3C)n(CCCCOc3cc4c(cc3OC)C(=O)N3CCC[C@H]3C=N4)c2c1 is ____.
Result: 1.21

* * *

System: HOP-18 NSCLC
Test: NCI tumour cell line growth inhibition, 48 h
Please provide measured TGI for the entries that follow.

Request: Name the recorded TGI for CC(C)(C)N/N=C(\C(=O)Nc1cccc(Cl)c1)C1C(=O)Nc2ccccc2S1=O (stereo unspecified) .
Result: > 100 µM

Request: Given CCCCCCSc1nc(N)nc2nc[nH]c12 , state its recorded TGI.
Result: > 72.6 µM

Request: What value of TGI has been recorded for this entry: CN1C(=O)CC2(C)c3cc(O)cc(Br)c3N(C)C12 (stereo unspecified)
Result: > 100 µM

Request: Quick one: TGI of COC(=O)Cc1c([C@@]2(C)CCCC(C)(C)C2)ccc2c1C(=O)OC2 ?
Result: 47.1 µM

Request: # query: TGI of entry CC1(C)NC(=O)N(CCCCCCN2C(=O)NC(C)(C)C2=O)C1=O
Result: > 100 µM

Request: Item N#CCCN(CCC#N)c1ccc(/C=C(/NC(=O)c2cc([N+](=O)[O-])ccc2Cl)C(=O)NN)cc1 has what recorded TGI?
Result: > 100 µM

* * *

For each of the compounds below, state its log10 TGI.
Tested on: HCT-116 colon
Assay: NCI tumour cell line growth inhibition, 48 h
All values: log10 TGI [µM].

Request: If you can, please state the reported log10 TGI value of CCOP(=O)(CCCC(O)CNc1nc(N)nc(Cl)c1N=Nc1ccc(Cl)cc1)OCC (stereo unspecified) .
Result: 1.34

Request: Which log10 TGI reading was recorded for the compound CCCCCCCCCCNCCSSCc1ccc(Cl)cc1 ?
Result: 0.50

Request: Entry under review: O=C1C=C(Nc2ccccc2C(=O)CC(=O)C(=O)Nc2ccc(Cl)cc2)c2ccccc2C1=O . Reported log10 TGI?
Result: 1.46

Request: Field request: log10 TGI | item: CC(C)=CC1C(C(=O)Oc2ccccc2C(C)C)C1(C)C (stereo unspecified)
Result: 1.71

Request: Quick check: log10 TGI of C=C(C)[C@@H](O)[C@H](O)C[C@H](C)C1CC[C@]2(C)C1=CC[C@@H]1[C@@]3(C)CC[C@@H](OC(C)=O)C(C)(C)[C@@H]3C[C@@H](OC3OC(COC(C)=O)C(O)C(O)C3O)[C@]12C (stereo partly specified) ?
Result: 0.77

Request: Field request: log10 TGI | item: O=C1/C(=C/c2ccc(O)cc2)CCCC1CN1CCCCC1 (stereo unspecified)
Result: 0.51

Request: What value of log10 TGI has been recorded for this entry: COc1cc2c3c(n(CCCN4CCNCC4)c(=O)c2cc1OC)-c1cc2c(cc1C3=O)OCO2
Result: 0.38
